IC50 overview
Biological target: protein phosphatase 1 (PP1)
Experiment: Inhibition of protein phosphatase 1, [32P]-phosphorylase substrate
Assay type: biochemical, chicken

COC(=O)C1C2C=CC(O2)C1C(=O)OC (centres unmarked)    50 µM

For the next question, use this molecule.
[ask] # IC50 lookup, item O=C1OC(=O)C2C3CCC(O3)C12 (centres unmarked)
[reply] 2.4 µM

----------
Tested on: 143B cells
Test: MTT cytotoxicity assay, 72 h
Type: cell-based, human
Details: p53 mt, read-out: IC50 (mean ± SE) after 72 h continuous exposure
quantity: IC50 (µM)
Respond with the bare value in µM.

Worked examples, 2 compounds total:
O=C1OC(O)C2C3CCC(O3)C12 (centres unmarked) [MK-4]    450
O=C(O)C1C2C=CC(O2)C1C(=O)Oc1ccccc1 (centres unmarked) [MK-3]    665

For the next question, use this compound.
[ask] # IC50 lookup, item O=C1OC(=O)C2C3C=CC(O3)C12 (centres unmarked) [MK-2]
[reply] 248
